assay: qHTS assay to identify small molecule agonists of the RXR signaling pathway - cell viability counter screen (AID 1159529); details: RXR-alpha-bla HEK293T viability, CellTiter-Glo, 16 h; series mostly up to 76.8 µM; also: nearly all actives have a fitted effect of over 50% in size
Inconclusive results are not listed. Activity calls are given as the source filed them. Calls follow the shape of the dose curve; as a rule, active = well fitted cell-killing curve with a large enough effect in the repeat runs; inconclusive = weak or mixed curves, or effect the other way; inactive = no such curve, though single readings can be large or run the other way.
Answer with one of the outcomes active, inactive

Cc1cc(O)ccc1O	active

Req: In this assay, the call recorded for "CCCCCCCCN" was what?
Resp: inactive

Req: Lab log entry: "CC1=C(CC=O)C(C)(C)CCC1" — outcome as called in the assay?
Resp: inactive

Req: Identify the outcome logged in this assay for the compound shown: "C1COC1"
Resp: inactive

###

assay: qHTS assay for small molecule agonists of the antioxidant response element (ARE) signaling pathway (AID 743202); conditions: HepG2 ARE-bla reporter, beta-lactamase FRET, 16 h; series mostly up to 73.3 µM; also: potency is read from the fitted curve at half-maximal effect; as to activation: % is scaled to controls: 0 for no effect and ±100 for the full control effect
Records with an inconclusive call do not appear. Calls of active or inactive are those of the source. Calls come from the whole dose curve; as a rule, active = well fitted activation curve with a large enough effect in the signal ratio in the repeat runs (not every such curve was filed as active); inconclusive = weak or mixed curves, or effect the other way; inactive = no such curve, though single readings can be large or run the other way; the % refers to the signal ratio.
Endpoint Label: Potency

O=C1NCCN1CCO	inactive
Cc1cscn1	inactive
OC[C@H]1O[C@@H](n2cnc3c(=S)nc[nH]c32)[C@H](O)[C@@H]1O	3.35 µM (active)

###

test: qHTS assay for small molecule agonists of the p53 signaling pathway (AID 651631); settings: HCT-116 p53RE-bla reporter, beta-lactamase FRET ratio, 16 h; series mostly up to 73.3 µM; also: nearly all actives have a fitted effect of over 15% in size
Records with an inconclusive call do not appear. The source made the active and inactive calls. Calls come from the whole dose curve.
Reply using exactly one outcome from 1 = active, -1 = inactive

Nc1ncnc2c1ncn2[C@H]1CC[C@@H](CO)O1	-1
CC=C(Cl)Cl	-1
COc1cc(Nc2c(C#N)cnc3cc(OCCCN4CCN(C)CC4)c(OC)cc23)c(Cl)cc1Cl	1

Req: Could you kindly confirm the outcome this assay logged for "CC(=O)[C@H]1[C@H](C#N)C[C@H]2[C@@H]3CC=C4C[C@@H](O)CC[C@]4(C)[C@H]3CC[C@@]21C" ?
Resp: -1

Req: Recorded call for "C=C1c2cccc(O)c2C(O)=C2C(=O)[C@]3(O)C(O)=C(C(N)=O)C(=O)[C@@H](N(C)C)[C@@H]3[C@@H](O)[C@H]12" ?
Resp: -1

Req: State the result this test recorded for "O=C(CCc1ccc(O)cc1)c1c(O)cc(O)cc1O" .
Resp: 1

Req: Given "N#[N+]c1ccc2c(S(=O)(=O)[O-])cccc2c1O" , state the outcome it received in this test.
Resp: -1

###

target: Cytochrome P450 1A2 (Homo sapiens); experiment: Cytochrome P450 Family 1 Subfamily A Member 2 (CYP1A2) small molecule antagonists: luciferase reporter qHTS assay (AID 1671199); conditions: P450-Glo CYP1A2 enzyme, luciferin luminescence, 1 h; series mostly up to 53 µM; also: % is scaled to controls: 0 for no effect and ±100 for the full control effect; nearly all actives have a fitted effect of over 50% in size
Inconclusive results are not listed. Calls of active or inactive are those of the source. The call rests on the fitted dose curve; in most records, active means well fitted inhibition curve with a large enough effect in the repeat runs; inconclusive means weak or mixed curves; inactive means no such curve, though single readings can be large or run the other way.
Endpoint Label: outcome

CCC(C)COC(C)=O (stereo not drawn)	inactive
Oc1c(I)cc(I)c2cccnc12	inactive
CC(C)Nc1cccnc1N1CCN(C(=O)c2cc3cc(NS(C)(=O)=O)ccc3[nH]2)CC1	inactive

###

test: qHTS assay to identify small molecule antagonists of the retinoic acid receptor (RAR) signaling pathway (AID 1159552; also: nearly all actives have a fitted effect of over 50% in size); details: C3RL4 RARE luciferase reporter, retinol-stimulated, 6 h; series mostly up to 92.4 µM
Records with an inconclusive call do not appear. Calls of active or inactive are those of the source. The call rests on the fitted dose curve; in most records, active means well fitted inhibition curve with a large enough effect in the repeat runs; inconclusive means weak or mixed curves, or effect the other way; inactive means no such curve, though single readings can be large or run the other way.
Bench note: report the call from active, inactive

O=c1[nH]ncc2ccccc12	inactive
COc1ccccc1N1CCN(CC(O)COc2cccc3ccccc23)CC1 (centres undefined)	active
C=C1CCC2CC1C2(C)C (centres undefined)	inactive

Req: Recorded test outcome, item "O=C1NC(=O)c2cc([N+](=O)[O-])ccc21"
Resp: inactive

Req: Can you look up the reported call for "CCC1(CO)COCOC1" for me?
Resp: inactive

###

assay: qHTS assay to identify small molecule antagonists of the retinoid-related orphan receptor gamma (ROR-gamma) signaling pathway - cell viability counter screen (AID 1159520); details: Tet-on RORgamma CHO cells viability, ATP luminescence, 16 h; series mostly up to 92.4 µM; also: % is scaled to controls: 0 for no effect and ±100 for the full control effect; nearly all actives have a fitted effect of over 50% in size
Records with an inconclusive call do not appear. Calls of active or inactive are those of the source. Calls come from the whole dose curve; as a rule, active = well fitted cell-killing curve with a large enough effect in the repeat runs; inconclusive = weak or mixed curves, or effect the other way; inactive = no such curve, though single readings can be large or run the other way.
Respond with a class label; see t = active, f = inactive

Answered examples (3):
NNC(=O)CP(=O)(c1ccccc1)c1ccccc1	f
CC(C)(C)C(=O)C(=O)O	f
CCCCCCCCCI	f

Req: Hi, sorry to bother you, what did the test record for COc1ccccc1N1CCN(CC(O)COc2cccc3ccccc23)CC1 (stereo not given) ?
Resp: f

Req: Given "C(=C\c1ccccc1)/c1ccccc1" , state the outcome it received in this test.
Resp: f

Req: Answer briefly: the call reported for "CN1C(=O)c2ccccc2C1=O" in this assay.
Resp: f

###

test: A CellTox Green Cytotoxicity Assay to monitor cytotoxicity in HepG2 cells - 32 hour (AID 1224883); conditions: CellTox Green fluorescence; series mostly up to 76.8 µM; also: nearly all actives have a fitted effect of over 50% in size
Results filed as inconclusive are left out. Calls of active or inactive are those of the source. Calls come from the whole dose curve; as a rule, active = well fitted activation curve with a large enough effect in the repeat runs; inconclusive = weak or mixed curves; inactive = flat fitted curve, though single readings scatter.
The reply should name one outcome from True (active), False (inactive)

Some solved entries appear below for comparison.
Cc1cc(C)cc(N)c1	False
CCCCCCCC/C=C\CCCCCCCCCCCC(=O)O	False
O=c1cc(-c2ccccc2)oc2ccc3ccccc3c12	True

Req: For this compound, state the assay outcome: "Oc1c(I)cc(I)c2cccnc12"
Resp: False

###

target: Cytochrome P450 2C19 (Homo sapiens) (UniProt P33261); experiment: Cytochrome P450 Family 2 Subfamily C Member 19 (CYP2C19) small molecule antagonists: luciferase reporter qHTS assay (AID 1671197); conditions: P450-Glo CYP2C19 enzyme, luciferin luminescence, 1 h; series mostly up to 52.9 µM; also: nearly all actives have a fitted effect of over 65% in size
Sequence (P33261 whole entry, looked up): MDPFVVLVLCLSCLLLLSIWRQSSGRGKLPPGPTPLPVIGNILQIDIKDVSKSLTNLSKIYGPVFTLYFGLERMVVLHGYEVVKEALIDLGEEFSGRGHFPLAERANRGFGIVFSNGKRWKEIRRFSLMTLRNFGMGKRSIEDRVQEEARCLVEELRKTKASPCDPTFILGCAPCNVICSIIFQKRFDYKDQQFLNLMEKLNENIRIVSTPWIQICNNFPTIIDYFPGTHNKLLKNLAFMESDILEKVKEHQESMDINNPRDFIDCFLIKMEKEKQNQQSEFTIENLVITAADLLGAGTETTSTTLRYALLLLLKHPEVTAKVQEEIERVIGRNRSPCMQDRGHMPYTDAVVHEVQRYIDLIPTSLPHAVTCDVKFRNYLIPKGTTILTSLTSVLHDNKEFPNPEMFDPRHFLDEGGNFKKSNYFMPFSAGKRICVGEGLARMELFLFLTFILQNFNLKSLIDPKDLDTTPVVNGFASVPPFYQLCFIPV
Results filed as inconclusive are left out. Calls of active or inactive are those of the source. The call rests on the fitted dose curve; in most records, active means well fitted inhibition curve with a large enough effect in the repeat runs; inconclusive means weak or mixed curves; inactive means no such curve, though single readings can be large or run the other way.
Return exactly one item of true = active, false = inactive

CCCCN(CCCC)C(C(N)=O)c1ccc(OC)cc1 (centres undefined)	true

Req: Any idea what this test logged for C=C(C)CCCC(C)CCO (centres undefined) ?
Resp: true

Req: Please state the recorded outcome for this molecule: "Cc1cc(O)ccc1O"
Resp: true

Req: Per the assay record, what outcome was assigned to "Cc1cscn1" ?
Resp: false

Req: Query: recorded result category for "C[C@@]12CCC[C@H]1[C@@H]1CC[C@H]3C[C@@H](O)CC[C@]3(C)[C@H]1CC2" in this test
Resp: true

Req: Just curious, what result did "CCOC(=O)c1ccc(O)c(O)c1" get here?
Resp: false

Req: Hey, what did the test say about "CCCCCCCCN" ?
Resp: false

Req: # fetch the recorded call for "CCCCCCC(C)(C)C(=O)O" here
Resp: true

Req: State the result this test recorded for CC1(CN2CCC(n3c(=O)[nH]c4ccccc43)CC2)OCc2ccccc2-n2cccc21 (centres undefined) .
Resp: true

Req: Test call, this molecule: "N#[N+]c1ccc2c(S(=O)(=O)[O-])cccc2c1O"
Resp: true

Req: Tell me the recorded outcome of this test for "N#CCc1ccc(Cl)cc1Cl" .
Resp: true

Req: Record request — test call for "COc1ccc(OC(=O)N(CC(=O)O)Cc2ccc(OCCc3nc(-c4ccccc4)oc3C)cc2)cc1"
Resp: false

Req: Answer briefly: the call reported for "C1COC1" in this assay.
Resp: false

Req: Tell me the assay call for COc1cc(N)c(Cl)cc1C(=O)NC1CCN(CCCOc2ccc(F)cc2)CC1OC (centres undefined) please.
Resp: true

Req: Which result was noted for this molecule in the test: "C[C@H]1C[C@H](O)c2ccsc2S1(=O)=O"
Resp: false

Req: What classification did "Nc1ccc(N=Nc2ccccc2)c(N)c1" end up with in this test?
Resp: true

###

experiment: qHTS assay for identifying genotoxic compounds that show differential cytotoxicity against isogenic chicken DT40 cell lines with known DNA damage response pathways - Rev3 mutant cell line (AID 743014); details: chicken DT40 Rev3-/- viability, CellTiter-Glo, 40 h; series mostly up to 68.4 µM; also: nearly all actives have a fitted effect of over 55% in size; also: potency is read from the fitted curve at half-maximal effect
Records with an inconclusive call do not appear. The source made the active and inactive calls. Calls follow the shape of the dose curve; as a rule, active = well fitted cell-killing curve with a large enough effect in the repeat runs; inconclusive = weak or mixed curves, or effect the other way; inactive = no such curve, though single readings can be large or run the other way.
Endpoint Label: Potency

Some entries whose results are on file:
Cc1ccc2c(Br)cc(Br)c(O)c2n1	9.44 µM (active)
CC1(C)O[C@@H]2C[C@H]3[C@@H]4C[C@H](F)C5=CC(=O)C=C[C@]5(C)[C@H]4[C@@H](O)C[C@]3(C)[C@]2(C(=O)CO)O1	inactive
Cc1ccc(CO)cc1	inactive
O=C1c2ccccc2C(=O)C1(O)O	24.5 µM (active)
Cc1cc(O)ccc1O	inactive
NCCNCCO	inactive
Oc1cc2c(cc1O)[C@H]1c3ccc(O)c(O)c3OC[C@@]1(O)C2	22 µM (active)
O=C1c2ccccc2C(=O)N1CCc1noc(-c2ccc(CN3CCCCCC3)s2)n1	39.7 µM (active)

I have 6 compounds here; please give me Potency for each one.
1. O=C(O)CCCCCCCCCCCBr
2. CCCCCC[C@@H](O)C/C=C\CCCCCCCC(=O)O
3. O=C(O)C[C@H](NC(=O)OCc1ccccc1)C(=O)O
4. CCCCCCC(C)(C)C(=O)O
5. Cc1cc(C)cc(N)c1
6. C[C@@H](O)[C@H]1C(=O)N2C(C(=O)O)=C([C@H]3CCCO3)S[C@H]12

Resp:
inactive
inactive
inactive
inactive
inactive
inactive

The measurements presented in this section are drawn from PubChem BioAssay (Tox21).
